- system_name: human Cav2.2 (Homo sapiens, UniProt Q00975)
- Sequence (Q00975 whole entry): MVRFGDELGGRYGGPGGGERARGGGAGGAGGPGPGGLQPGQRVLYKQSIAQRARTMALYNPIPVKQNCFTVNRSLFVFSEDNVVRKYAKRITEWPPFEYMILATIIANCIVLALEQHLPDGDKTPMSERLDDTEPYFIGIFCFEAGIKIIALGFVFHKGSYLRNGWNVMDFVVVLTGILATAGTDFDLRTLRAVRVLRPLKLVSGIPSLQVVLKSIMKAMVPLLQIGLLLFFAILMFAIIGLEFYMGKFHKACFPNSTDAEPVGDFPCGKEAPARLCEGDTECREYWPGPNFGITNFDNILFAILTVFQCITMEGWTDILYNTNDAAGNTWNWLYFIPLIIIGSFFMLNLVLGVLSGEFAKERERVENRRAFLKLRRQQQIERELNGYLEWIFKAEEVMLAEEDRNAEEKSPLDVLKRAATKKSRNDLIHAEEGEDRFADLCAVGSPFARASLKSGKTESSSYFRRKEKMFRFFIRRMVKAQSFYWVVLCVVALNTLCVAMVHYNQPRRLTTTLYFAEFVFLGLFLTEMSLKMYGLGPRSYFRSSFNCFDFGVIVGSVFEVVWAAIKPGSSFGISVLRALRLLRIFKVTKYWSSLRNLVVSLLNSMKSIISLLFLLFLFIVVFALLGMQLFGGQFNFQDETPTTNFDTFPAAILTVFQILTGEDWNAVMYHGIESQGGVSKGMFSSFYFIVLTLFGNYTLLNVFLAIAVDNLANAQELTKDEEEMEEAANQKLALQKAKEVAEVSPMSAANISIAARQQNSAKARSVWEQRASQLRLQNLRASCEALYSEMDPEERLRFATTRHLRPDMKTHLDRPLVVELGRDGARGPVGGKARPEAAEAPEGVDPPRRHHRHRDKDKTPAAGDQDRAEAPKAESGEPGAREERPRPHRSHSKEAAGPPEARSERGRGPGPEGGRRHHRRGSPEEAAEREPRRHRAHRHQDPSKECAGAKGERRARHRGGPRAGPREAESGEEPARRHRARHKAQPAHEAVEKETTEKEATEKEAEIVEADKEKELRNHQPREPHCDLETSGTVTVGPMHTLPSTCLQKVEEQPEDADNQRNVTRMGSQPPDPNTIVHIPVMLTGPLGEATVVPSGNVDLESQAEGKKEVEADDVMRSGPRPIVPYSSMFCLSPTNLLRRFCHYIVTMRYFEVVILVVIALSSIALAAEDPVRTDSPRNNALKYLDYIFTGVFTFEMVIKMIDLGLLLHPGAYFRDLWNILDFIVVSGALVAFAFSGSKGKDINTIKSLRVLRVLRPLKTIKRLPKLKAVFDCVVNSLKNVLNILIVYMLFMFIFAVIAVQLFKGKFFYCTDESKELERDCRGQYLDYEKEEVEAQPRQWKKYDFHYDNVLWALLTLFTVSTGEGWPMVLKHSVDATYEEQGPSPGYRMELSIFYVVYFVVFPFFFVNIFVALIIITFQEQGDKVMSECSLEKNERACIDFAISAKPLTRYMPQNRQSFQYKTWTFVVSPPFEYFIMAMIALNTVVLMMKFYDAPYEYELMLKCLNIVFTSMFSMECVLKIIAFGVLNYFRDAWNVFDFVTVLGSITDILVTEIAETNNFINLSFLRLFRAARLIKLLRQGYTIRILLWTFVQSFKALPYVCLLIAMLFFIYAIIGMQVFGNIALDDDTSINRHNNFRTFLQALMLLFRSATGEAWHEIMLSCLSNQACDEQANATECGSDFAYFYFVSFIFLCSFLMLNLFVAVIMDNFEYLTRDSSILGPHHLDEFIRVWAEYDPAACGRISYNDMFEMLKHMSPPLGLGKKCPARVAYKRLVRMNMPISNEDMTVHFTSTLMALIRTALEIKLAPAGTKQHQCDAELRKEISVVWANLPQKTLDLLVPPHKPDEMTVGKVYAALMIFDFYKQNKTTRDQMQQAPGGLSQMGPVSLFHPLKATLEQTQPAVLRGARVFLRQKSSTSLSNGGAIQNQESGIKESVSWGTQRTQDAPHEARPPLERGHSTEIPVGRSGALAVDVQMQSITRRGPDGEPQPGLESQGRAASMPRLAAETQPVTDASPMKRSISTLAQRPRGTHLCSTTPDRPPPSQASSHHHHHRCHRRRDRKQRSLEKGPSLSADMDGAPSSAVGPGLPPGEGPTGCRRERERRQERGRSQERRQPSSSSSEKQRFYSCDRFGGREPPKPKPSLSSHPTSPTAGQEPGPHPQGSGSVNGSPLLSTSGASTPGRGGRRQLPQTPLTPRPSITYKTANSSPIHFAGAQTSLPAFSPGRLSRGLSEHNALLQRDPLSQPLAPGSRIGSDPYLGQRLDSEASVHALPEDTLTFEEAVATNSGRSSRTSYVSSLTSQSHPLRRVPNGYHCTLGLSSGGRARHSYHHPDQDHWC
- Sequence (P54289 25-956 partner limits assumed): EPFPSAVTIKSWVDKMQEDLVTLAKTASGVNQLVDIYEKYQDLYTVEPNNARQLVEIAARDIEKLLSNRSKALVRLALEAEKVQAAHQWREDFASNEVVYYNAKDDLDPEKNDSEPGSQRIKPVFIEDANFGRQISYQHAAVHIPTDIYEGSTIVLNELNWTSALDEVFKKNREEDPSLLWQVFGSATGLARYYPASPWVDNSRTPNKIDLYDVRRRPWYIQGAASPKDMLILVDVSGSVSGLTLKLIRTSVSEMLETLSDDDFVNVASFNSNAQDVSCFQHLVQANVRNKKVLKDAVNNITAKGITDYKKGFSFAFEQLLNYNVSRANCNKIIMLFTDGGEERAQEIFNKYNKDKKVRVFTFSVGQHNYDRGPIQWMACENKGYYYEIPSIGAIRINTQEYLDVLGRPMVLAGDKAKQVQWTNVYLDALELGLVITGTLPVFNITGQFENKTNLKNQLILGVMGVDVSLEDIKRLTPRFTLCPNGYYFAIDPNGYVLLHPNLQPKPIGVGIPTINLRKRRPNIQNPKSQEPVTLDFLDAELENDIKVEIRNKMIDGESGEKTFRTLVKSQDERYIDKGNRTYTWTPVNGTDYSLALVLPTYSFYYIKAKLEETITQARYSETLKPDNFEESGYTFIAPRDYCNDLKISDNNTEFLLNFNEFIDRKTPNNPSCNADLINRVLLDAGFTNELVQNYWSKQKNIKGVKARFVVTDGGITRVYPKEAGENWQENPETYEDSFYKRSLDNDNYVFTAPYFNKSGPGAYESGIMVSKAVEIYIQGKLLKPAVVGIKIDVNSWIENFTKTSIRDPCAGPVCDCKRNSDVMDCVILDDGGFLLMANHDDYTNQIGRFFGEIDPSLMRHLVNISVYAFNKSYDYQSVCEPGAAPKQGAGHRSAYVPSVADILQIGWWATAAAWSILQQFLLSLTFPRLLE
- Sequence (P54289 957-1103 partner limits assumed): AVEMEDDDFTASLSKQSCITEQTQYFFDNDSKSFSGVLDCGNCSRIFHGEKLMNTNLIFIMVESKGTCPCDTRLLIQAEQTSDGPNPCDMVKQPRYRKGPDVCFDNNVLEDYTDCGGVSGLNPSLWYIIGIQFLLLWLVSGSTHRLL
- Sequence (P54284 whole entry partner): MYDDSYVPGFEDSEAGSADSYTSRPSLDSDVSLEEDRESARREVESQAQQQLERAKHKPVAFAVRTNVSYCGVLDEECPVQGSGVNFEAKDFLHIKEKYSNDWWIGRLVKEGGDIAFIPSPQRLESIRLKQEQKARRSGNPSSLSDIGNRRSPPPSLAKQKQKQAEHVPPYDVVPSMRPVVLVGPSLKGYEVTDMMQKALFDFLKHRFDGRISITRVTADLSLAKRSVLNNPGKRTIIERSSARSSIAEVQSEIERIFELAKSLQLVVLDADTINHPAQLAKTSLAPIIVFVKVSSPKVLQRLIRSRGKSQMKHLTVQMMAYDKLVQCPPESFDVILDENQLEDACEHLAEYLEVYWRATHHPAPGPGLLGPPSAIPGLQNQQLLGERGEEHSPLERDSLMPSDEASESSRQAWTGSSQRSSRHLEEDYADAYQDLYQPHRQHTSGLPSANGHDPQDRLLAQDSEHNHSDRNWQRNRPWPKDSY
- procedure_text: Assessment of calcium channel activity using FLIPR (Ca2+ influx in IMR32 cells)
- Assay type: cell-based
- Experimental: (i) In Vitro Methods—Assessment of Calcium Channel Activity Using FLIPR: The IMR32 cells were maintained in MEM media containing 10% (v/v) FBS, 1% (v/v) antibiotic/antimitotic, 1% (v/v) sodium pyruvate and 1% (v/v) MEM NEAA. […] To determine the IC50 values, the percent inhibition of the compound at each concentration was determined relative to the activity in the absence of inhibitor, and data was fitted using non-linear regression sigmoidal dose response curve analysis with GraphPad Prism®.
property: IC50

CC(C)(C)[C@H](N)C(=O)N[C@H]1CC[C@@H]2CN(Cc3ccccc3)C[C@@H]21 [Example 357]: > 30 µM
COc1ccc(N2C[C@H]3CC[C@H](NC(=O)[C@@H]4C[C@@H](F)CN4)[C@H]3C2)cc1 [Example 653]: > 30 µM

We next turn to a different compound, shown below.
Data request: What IC50 value was documented for this compound, CN[C@H]1CC[C@@H]2CN(S(=O)(=O)c3ccc(C(F)(F)F)cc3)C[C@@H]21 [Example 301] ?
Data returned: > 9 µM
